Test system: beta-TC6 cells
Assay: Insulin HTRF assay, relative activity Ar normalized to sunitinib
Format: cell-based
Settings: Mus musculus, normalized to positive control sunitinib (5 µM = 100%), Table 10
RESULT_TYPE: Emax

Worked examples, 2 molecules total:
c1nc(-c2nnc3ccc(-c4ccc(N5CCOCC5)cc4)cn23)cs1 | 50 to 100%
N#Cc1cccc(-c2cnc3cccnn23)c1 | 20 to 50%

Problem: I'd like to know its Emax. The molecule in question is "O=C(Nc1cnc2cnc(-c3ccsc3)cn12)c1cccs1"
Result: 20 to 50%

Problem: Look at this molecule and give its reported Emax. "Clc1cccc(-c2cn3c(-c4cccs4)cnc3cn2)c1"
Result: 20 to 50%
